Cited source: patent US4570006A

test system: complement; assay: Inhibition of complement mediated hemolysis; assay type: cell-based; details: compound at 1 × 10^-6
endpoint_label: Inhibition of complement mediated hemolysis (%)

compound="COc1cc(C(=N)N)ccc1OC(=O)c1ccc(NC(=N)N)cc1 [Compound 71]" display_unit=% obs_value=2.7
compound="CC(=O)N[C@@H](CC(C)C)C(=O)N[C@@H](CC(C)C)C(=O)N[C@H](C=O)CCCNC(=N)N [Leupeptin, reference compound]" display_unit=% obs_value=0
compound="COc1cc(C(=N)N)ccc1OC(=O)c1ccc(NC(=N)N)c(C)c1 [Compound 75]" display_unit=% obs_value=0
compound="Cc1cc(OC(=O)c2ccccc2)ccc1C(=N)N [Compound 22, 4-amidino-3-methylphenyl benzoate]" display_unit=% obs_value=0
compound="COC(=O)c1cc(C(=N)N)ccc1OC(=O)c1ccc(CNC(=O)OCc2ccccc2)cc1 [Compound 59]" display_unit=% obs_value=76.0
compound="COc1cc(C(=N)N)ccc1OC(=O)/C=C/c1ccccc1 [Compound 31, 4-amidino-2-methoxyphenyl cinnamate]" display_unit=% obs_value=15.8
compound="CSc1ccc(C(=O)Oc2ccc(C(=N)N)cc2C(=O)c2ccccc2)cc1 [Compound 49]" display_unit=% obs_value=97.5
compound="N=C(N)c1ccc(OC(=O)c2ccc(C=O)cc2)c(C(=O)c2ccccc2)c1 [Compound 52]" display_unit=% obs_value=75.4
